The measurements presented in this section are drawn from ChEMBL document CHEMBL1201862.

- Test system: Hs-578T
- experiment-description: NCI tumour cell line growth inhibition, 48 h
The source made the active and inactive calls. Rule as the data show it: active = GI50 up to about 1.1 µM and inactive = higher.
measure: GI50

- compound: "O=c1c2ccccc2[nH]c(=S)n1-c1ccc(/N=N/c2cccc3cc(O)ccc23)cc1"
  assayed-target: "Hs-578T"
  measure: "GI50"
  reading: "> 100 µM (inactive)"
- compound: "N#Cc1ccc(-c2nc3c(N)nc(-c4ccccc4)nc3o2)cc1"
  assayed-target: "Hs-578T"
  measure: "GI50"
  reading: "> 100 µM (inactive)"
- compound: "CCOC(=O)c1nc2ccccc2n(CC)c1=O"
  assayed-target: "Hs-578T"
  measure: "GI50"
  reading: "> 100 µM (inactive)"
- compound: "[O-][S+]1SC(=S)C2C=CC=NC21 (configuration not stated)"
  assayed-target: "Hs-578T"
  measure: "GI50"
  reading: "20.7 µM (inactive)"
- compound: "O=C(O)c1ccccc1-c1ccccc1C(=O)Nc1ccc2c(c1)Cc1cc(F)ccc1-2"
  assayed-target: "Hs-578T"
  measure: "GI50"
  reading: "54.8 µM (inactive)"
- compound: "CCc1nc(N)nc(N)c1-c1ccc(Cl)c(Cl)c1 [ETOPRINE]"
  assayed-target: "Hs-578T"
  measure: "GI50"
  reading: "43 µM (inactive)"
- compound: "O=C(OC(=C(c1ccccc1)c1ccccc1)N1CCCC1=S)C(c1ccccc1)c1ccccc1"
  assayed-target: "Hs-578T"
  measure: "GI50"
  reading: "> 10 µM (inactive)"
- compound: "CONC(C)=O"
  assayed-target: "Hs-578T"
  measure: "GI50"
  reading: "> 100 µM (inactive)"
- compound: "c1ccc(-c2ccc(-c3cc4ccccc4[nH]3)cc2)cc1"
  assayed-target: "Hs-578T"
  measure: "GI50"
  reading: "> 100 µM (inactive)"
- compound: "Nc1nc(N)nc(CCCc2nc(N)nc(N)n2)n1"
  assayed-target: "Hs-578T"
  measure: "GI50"
  reading: "> 100 µM (inactive)"
- compound: "CN(C)c1ccc2c3c(c(=O)oc2c1)CCC3"
  assayed-target: "Hs-578T"
  measure: "GI50"
  reading: "36.8 µM (inactive)"
- compound: "CC(=O)OCCCCn1cnc2c(Cl)nc(Nc3ccccc3)nc21"
  assayed-target: "Hs-578T"
  measure: "GI50"
  reading: "> 100 µM (inactive)"

----------
- Tested on: BT-549
- experiment-description: NCI tumour cell line growth inhibition, 48 h
The source made the active and inactive calls. Rule as the data show it: active = GI50 up to about 1.1 µM and inactive = higher.
Outcomes: class 1 for active, class 0 for inactive

- compound: "COc1ccccc1-c1nc(O)c2ccccc2n1"
  assigned-class: "class 0"
- compound: "Cc1ccc(Nc2n[nH]c(NS(=O)(=O)c3cc(C)c(Cl)cc3S)n2)cc1"
  assigned-class: "class 0"
- compound: "O=C(O)C(Cc1ccccc1)Cc1ccccc1"
  assigned-class: "class 0"
- compound: "COc1cccc(-c2[nH]c3cc4c(cc3c(=O)c2C(=O)O)OCO4)c1"
  assigned-class: "class 0"
- compound: "COc1cc2c(cc1O)CC[C@@H]1C2CC[C@@]2(C)C1CC[C@@H]2O (stereo partly specified)"
  assigned-class: "class 1"
- compound: "O=c1cc(-c2ccccc2)[nH]c2cccc(S)c12"
  assigned-class: "class 0"
